Hello, the source for this data is patent US20020098189A1, in case you need it.

Give kon for every item shown.
SUBJECT OF TEST: T1, C-terminal truncated RSV F protein, secreted from recombinant baculovirus-infected cells (respiratory syncytial virus (strain not …, UniProt P03420 26-526))
T1 construct: also called F antigen of RSV
ASSAY SUMMARY: SPR (BIAcore), F protein immobilized, Fab injected
Note: unit M⁻¹ s⁻¹ is implicit; provide only the numeric part.

Q. Look at this binder and give its reported kon. Clone 10 (Fab) (Fab, V domains shown) VH: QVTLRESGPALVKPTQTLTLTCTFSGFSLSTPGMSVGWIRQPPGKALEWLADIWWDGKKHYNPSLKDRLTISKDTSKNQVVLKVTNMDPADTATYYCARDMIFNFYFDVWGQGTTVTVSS VL: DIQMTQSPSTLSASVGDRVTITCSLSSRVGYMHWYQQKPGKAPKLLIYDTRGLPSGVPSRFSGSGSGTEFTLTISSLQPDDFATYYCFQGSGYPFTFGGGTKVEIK
A. 527000

Q. Look at this binder and give its reported kon. Clone 9 (Fab) (Fab, V domains shown) VH: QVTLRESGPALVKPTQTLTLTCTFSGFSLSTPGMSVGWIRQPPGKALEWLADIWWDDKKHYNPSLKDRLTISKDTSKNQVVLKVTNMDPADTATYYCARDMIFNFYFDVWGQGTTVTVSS VL: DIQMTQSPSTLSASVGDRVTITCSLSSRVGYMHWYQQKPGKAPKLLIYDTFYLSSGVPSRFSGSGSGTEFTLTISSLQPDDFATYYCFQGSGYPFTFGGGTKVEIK
A. 663000

Q. Look at this binder and give its reported kon. Clone 14 (Fab) (Fab, V domains shown) VH: QVTLRESGPALVKPTQTLTLTCTFSGFSLSTAGMSVGWIRQPPGKALEWLADIWWDDKKHYNPSLKDRLTISKDTSKNQVVLKVTNMDPADTATYYCARDMIFNWYFDVWGQGTTVTVSS VL: DIQMTQSPSTLSASVGDRVTITCSPSSRVGYMHWYQQKPGKAPKLLIYDTYRHSSGVPSRFSGSGSGTEFTLTISSLQPDDFATYYCFQGSGYPFTFGGGTKVEIK
A. 735000

Q. Look at this binder and give its reported kon. Reference clone (Fab fragment with the sequences of FIG. 2 and the CDRs of Table 1) (Fab, V domains shown, also called basic structure) VH: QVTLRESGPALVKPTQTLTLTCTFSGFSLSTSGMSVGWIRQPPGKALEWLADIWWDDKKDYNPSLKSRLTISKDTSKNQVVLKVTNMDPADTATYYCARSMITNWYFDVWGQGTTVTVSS VL: DIQMTQSPSTLSASVGDRVTITCSASSSVGYMHWYQQKPGKAPKLLIYDTSKLASGVPSRFSGSGSGTEFTLTISSLQPDDFATYYCFQGSGYPFTFGGGTKVEIK
A. 185000

Q. Look at this binder and give its reported kon. Clone 15 (Fab) (Fab, V domains shown) VH: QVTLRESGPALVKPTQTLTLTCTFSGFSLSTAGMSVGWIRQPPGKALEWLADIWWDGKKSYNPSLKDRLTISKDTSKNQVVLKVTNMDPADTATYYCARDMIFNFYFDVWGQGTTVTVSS VL: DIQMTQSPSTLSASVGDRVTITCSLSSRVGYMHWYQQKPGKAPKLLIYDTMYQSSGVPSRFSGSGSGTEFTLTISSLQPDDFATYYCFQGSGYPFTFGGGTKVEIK
A. 781000

Q. Look at this binder and give its reported kon. Clone 11 (Fab) (Fab, V domains shown) VH: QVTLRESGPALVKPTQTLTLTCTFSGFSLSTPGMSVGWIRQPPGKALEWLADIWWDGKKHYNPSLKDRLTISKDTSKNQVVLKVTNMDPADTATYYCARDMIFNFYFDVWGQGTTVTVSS VL: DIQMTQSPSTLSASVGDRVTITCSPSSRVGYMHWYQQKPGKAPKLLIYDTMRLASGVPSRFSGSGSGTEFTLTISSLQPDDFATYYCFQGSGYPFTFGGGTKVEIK
A. 571000
